Recorded CC50, one value per entry.
# Test system: SK-MEL-2
# recordedConditions: read-out: 50% lethal concentration (LC50); SK-MEL-2, Melanoma

compound: C=C1CCC2C3(C)COC(c4cn(-c5ccccc5)nc4-c4cccc([N+](=O)[O-])c4)OC3CCC2(C)C1CC=C1C(=O)OCC1O (centres unmarked)
CC50: 6.94 µM

compound: C=C1CCC2C3(C)COC(c4cn(-c5ccccc5)nc4-c4ccccc4)OC3CCC2(C)C1CC=C1C(=O)OCC1O (centres unmarked)
CC50: 7.2 µM

---

# Tested on: HCT-15
# recordedConditions: read-out: 50% lethal concentration (LC50); HCT-15, Colon
Under this convention, yes denotes CC50 strictly below 7 µM and no denotes CC50 at or above 7 µM.

compound: C=C1CCC2C3(C)COC(c4cn(-c5ccccc5)nc4-c4cccc(F)c4)OC3CCC2(C)C1CC=C1C(=O)OCC1O (stereo not shown)
assignedClass: yes
//
compound: C=C1CCC2C3(C)COC(c4cn(-c5ccccc5)nc4-c4ccc(F)cc4)OC3CCC2(C)C1CC=C1C(=O)OCC1O (stereo not shown)
assignedClass: yes
//
compound: C=C1CCC2C3(C)COC(c4cn(-c5ccccc5)nc4-c4cccc(Cl)c4)OC3CCC2(C)C1CC=C1C(=O)OCC1O (stereo not shown)
assignedClass: no
//
compound: C=C1CCC2C3(C)COC(c4cn(-c5ccccc5)nc4-c4ccc(Cl)cc4)OC3CCC2(C)C1CC=C1C(=O)OCC1O (stereo not shown)
assignedClass: yes
//
compound: C=C1CCC2C3(C)COC(c4cn(-c5ccccc5)nc4-c4cccc(Br)c4)OC3CCC2(C)C1CC=C1C(=O)OCC1O (stereo not shown)
assignedClass: no
//
compound: C=C1CCC2C3(C)COC(c4cn(-c5ccccc5)nc4-c4cccc([N+](=O)[O-])c4)OC3CCC2(C)C1CC=C1C(=O)OCC1O (stereo not shown)
assignedClass: no
//
compound: C=C1CCC2C3(C)COC(c4cn(-c5ccccc5)nc4-c4ccc(C)cc4)OC3CCC2(C)C1CC=C1C(=O)OCC1O (stereo not shown)
assignedClass: yes

---

Overview of recorded Total growth inhibition (TGI) for various compounds
# Tested on: SNB-75
# recordedConditions: SNB-75, CNS
parameter: Total growth inhibition (TGI) (µM)

compound: C=C1CCC2C3(C)COC(c4cn(-c5ccccc5)nc4-c4ccc(C)cc4)OC3CCC2(C)C1CC=C1C(=O)OCC1O (stereo not shown)
value: 2.99
--
compound: C=C1CCC2C3(C)COC(c4cn(-c5ccccc5)nc4-c4cccc([N+](=O)[O-])c4)OC3CCC2(C)C1CC=C1C(=O)OCC1O (stereo not shown)
value: 50
--
compound: C=C1CCC2C3(C)COC(c4cn(-c5ccccc5)nc4-c4ccc(Br)cc4)OC3CCC2(C)C1CC=C1C(=O)OCC1O (stereo not shown)
value: 2.91
--
compound: C=C1CCC2C3(C)COC(c4cn(-c5ccccc5)nc4-c4ccc(OC)cc4)OC3CCC2(C)C1CC=C1C(=O)OCC1O (stereo not shown)
value: 5.09

---

Heads up, these compounds all have GI50 values measured for UACC-257.

compound: C=C1CCC2C3(C)COC(c4cn(-c5ccccc5)nc4-c4cccc(Br)c4)OC3CCC2(C)C1CC=C1C(=O)OCC1O (stereo not shown)
GI50 [µM]: 1.77
--
compound: C=C1CCC2C3(C)COC(c4cn(-c5ccccc5)nc4-c4ccc(C)cc4)OC3CCC2(C)C1CC=C1C(=O)OCC1O (stereo not shown)
GI50 [µM]: 1.74
--
compound: C=C1CCC2C3(C)COC(c4cn(-c5ccccc5)nc4-c4ccc(Br)cc4)OC3CCC2(C)C1CC=C1C(=O)OCC1O (stereo not shown)
GI50 [µM]: 1.7
--
compound: C=C1CCC2C3(C)COC(c4cn(-c5ccccc5)nc4-c4cccc(Cl)c4)OC3CCC2(C)C1CC=C1C(=O)OCC1O (stereo not shown)
GI50 [µM]: 1.77

Recorded values, source paper PMC12298351.
